pKi: −log10 of the molar value.
Here we gather pKi data for Melatonin receptor type 1A (Homo sapiens) reported by several publications.
Measured Attribute: pKi

Observe how each entry below is paired with its result.
| Compound | pKi |
| --- | --- |
| CC(=O)NCCc1c(Cc2ccccc2)oc2ccccc12 | 6.81 |
| CCNC(=O)NCC1CCc2c(OC)cccc2N1Cc1ccccc1 (racemic) | 6.88 |

[a] COc1cccc(O[C@H](C)CNC(C)=O)c1
[b] CC(=O)NCCC1Cc2cccc3cccc1c23 (stereo unspecified)
[c] COc1ccc2[nH]c(CN3c4ccccc4CC3CO)c(CCNC(C)=O)c2c1 (racemic)
[d] COc1cccc(O[C@@H](C)CNC(=O)C2CC2)c1
Prompt: Please rank these compounds by pKi in descending order. Show the ranking through the labels, in the order asked for.
Response: d, b, c, a
(d: 9.14, b: 8.19, c: 7.76, a: 7.31)
